- tested_system: colchicine site on tubulin (biotinylated porcine tubulin) (Sus scrofa, UniProt P02550+P02554)
- Construct: biotin (chemical label)
- Sequence (P02554 whole entry): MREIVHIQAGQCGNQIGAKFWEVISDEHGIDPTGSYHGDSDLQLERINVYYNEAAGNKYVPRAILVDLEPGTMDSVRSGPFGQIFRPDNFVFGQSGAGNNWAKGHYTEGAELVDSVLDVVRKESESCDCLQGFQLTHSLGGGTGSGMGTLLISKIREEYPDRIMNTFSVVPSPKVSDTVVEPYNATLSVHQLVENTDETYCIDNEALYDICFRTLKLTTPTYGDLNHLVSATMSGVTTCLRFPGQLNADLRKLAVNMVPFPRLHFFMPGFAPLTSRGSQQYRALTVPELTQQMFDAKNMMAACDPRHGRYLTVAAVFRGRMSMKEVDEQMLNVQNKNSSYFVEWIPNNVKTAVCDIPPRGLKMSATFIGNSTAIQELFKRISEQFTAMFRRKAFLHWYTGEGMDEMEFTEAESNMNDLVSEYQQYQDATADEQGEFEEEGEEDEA
- Sequence (P02550 whole entry): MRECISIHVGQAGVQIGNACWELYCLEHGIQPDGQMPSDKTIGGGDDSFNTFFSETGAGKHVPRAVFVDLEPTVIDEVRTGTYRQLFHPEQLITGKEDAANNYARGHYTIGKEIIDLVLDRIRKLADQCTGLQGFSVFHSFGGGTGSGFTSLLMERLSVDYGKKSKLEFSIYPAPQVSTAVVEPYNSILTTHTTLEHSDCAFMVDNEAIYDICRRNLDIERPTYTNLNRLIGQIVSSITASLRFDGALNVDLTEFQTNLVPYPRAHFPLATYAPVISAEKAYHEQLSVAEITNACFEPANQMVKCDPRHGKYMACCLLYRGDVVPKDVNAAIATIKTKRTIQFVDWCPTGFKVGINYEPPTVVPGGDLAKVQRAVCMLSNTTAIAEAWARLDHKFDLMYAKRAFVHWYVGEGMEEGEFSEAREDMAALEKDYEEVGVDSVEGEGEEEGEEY
- assay_comment: Tubulin displacement assay (3H-colchicine radioligand binding, SPA)
observable: pIC50
pIC50 is a log-scale quantity: -log10 of the concentration expressed in molar.

Query: Read the entry CCOc1ccc2c(C(=O)c3cc(OC)c(OC)c(OC)c3)cncc2c1OP(=O)(O)O [Compound 98] and write its reported pIC50.
Reply: 6.92

---

- Test system: Endothelial cells (HUVEC)
- assay_comment: Neovessels formation inhibition (capillary tube formation on Matrigel)
- Assay type: cell-based
- particulars: Homo sapiens; HUVEC on Matrigel, compounds overnight; read-out: Neovessels Formation Inhibition Number of Branch Junctions IC50
Structures can show the parent of a compound that is named as a salt.
Listing: IC50 of selected compounds
Respond numerically; units are nM and should not be typed.

Completed entries (count: 5):
>  <compound>
CCOc1ccc2c(C(=O)c3cc(OC)c(OCC)c(OC)c3)cncc2c1NS(N)(=O)=O [Compound 59]

>  <observable>
IC50

>  <recorded_result>
8.32

$$$$
>  <compound>
CCOc1ccc2c(C(=O)c3cc(OC)c(OC)c(OC)c3)cncc2c1N [Compound 29, hydrochloride]

>  <observable>
IC50

>  <recorded_result>
1.04

$$$$
>  <compound>
CCOc1ccc2c(Cc3cc(OC)c(OC)c(OC)c3)cncc2c1OS(N)(=O)=O [Compound 21, hydrochloride]

>  <observable>
IC50

>  <recorded_result>
47.3

$$$$
>  <compound>
C=CCOc1c(OC)cc(Cc2cncc3c(O)c(OCC)ccc23)cc1OC [Compound 32, hydrochloride]

>  <observable>
IC50

>  <recorded_result>
12.4

$$$$
>  <compound>
CC[C@]1(O)C[C@@H]2CN(CCc3c([nH]c4ccccc34)[C@@](C(=O)OC)(c3cc4c(cc3OC)N(C)[C@H]3[C@@](O)(C(=O)OC)[C@H](OC(C)=O)[C@]5(CC)C=CCN6CC[C@]43[C@@H]65)C2)C1 [Vinblastine, reference compound]

>  <observable>
IC50

>  <recorded_result>
1.55

$$$$

Query: Read the entry CCCOc1c(OC)cc(C(=O)c2cncc3c(N)c(OCC)ccc23)cc1OC [Compound 66, hydrochloride] and write its reported IC50.
Reply: 2.23

---

- tested_system: purified tubulin (Sus scrofa, UniProt P02550+P02554)
- Sequence (P02554 whole entry): as the sequence (P02554 whole entry) above
- Sequence (P02550 whole entry): as the sequence (P02550 whole entry) above
- assay_comment: Tubulin polymerisation assay (CytoDYNAMIX Screen kit, absorbance at 340 nm)
- particulars: tubulin polymerization
Where a name gives a salt, the structure may show the parent alone.
observable: pIC50
pIC50 is a log-scale quantity: -log10 of the concentration expressed in molar.

>  <compound>
CCCCOc1c(OC)cc(Cc2cncc3c(O)c(OCC)ccc23)cc1OC [Compound 38, hydrochloride]

>  <pIC50>
5.95

$$$$
>  <compound>
CCCOc1c(OC)cc(Cc2cncc3c(N)c(OCC)ccc23)cc1OC [Compound 64, dihydrochloride]

>  <pIC50>
6.05

$$$$

Query: Using purified tubulin (Sus scrofa, UniProt P02550+P02554) as the test system, report measured pIC50 of CCOc1ccc2c(Cc3cc(OC)c(OCCC(C)C)c(OC)c3)cncc2c1O [Compound 33, hydrochloride] .
Reply: 5.88

---

- Tested on: K562 cell line
- assay_comment: MTT assay: cytotoxicity against the K562 cell line
- Type: cell-based
- particulars: Homo sapiens, K562 cells, 72 h, growth inhibition
Counter-ions that a name gives are not always drawn.
observable: log10 IC50 (log10 of the value in nM)
Would you kindly interpret these values as log10 of IC50 expressed in nM?

>  <compound>
CCOc1ccc2c(Cc3cc(OC)c(OCC)c(OC)c3)cncc2c1OC [Compound 46, hydrochloride]

>  <recorded_result>
2.84

$$$$
>  <compound>
CCOc1ccc2c(Cc3cc(Br)c(OCC)c(OC)c3)cncc2c1O [Compound 77, hydrochloride]

>  <recorded_result>
1.69

$$$$
>  <compound>
CCOc1ccc2c(C(=O)c3cc(Br)c(OC)c(OC)c3)cncc2c1O [Compound 116, hydrochloride]

>  <recorded_result>
1.94

$$$$
>  <compound>
CCOc1ccc2c(Cc3cc(Br)c(OC)c(OC)c3)cncc2c1O [Compound 71, hydrochloride]

>  <recorded_result>
1.41

$$$$

Query: Read the entry CCOc1ccc2c(Cc3cc(OC)c(OC)c(OC)c3)cncc2c1N=[N+]=[N-] [Compound 107] and write its reported log10 IC50.
Reply: 2.76

Query: Read the entry CCOc1ccc2c(Cc3cc(OC)c(OCC)c(OC)c3)cncc2c1N [Compound 18, dihydrochloride] and write its reported log10 IC50.
Reply: 1.12

Query: Read the entry CCOc1ccc2c(Cc3cc(OC)c(OCC(CC)CC)c(OC)c3)cncc2c1O [Compound 37, hydrochloride] and write its reported log10 IC50.
Reply: 2.95

Query: Read the entry COc1ccc(/C=C\c2cc(OC)c(OC)c(OC)c2)cc1O [Combretastatin, reference compound] and write its reported log10 IC50.
Reply: 0.32

Provenance of the data: patent US20130131018A1
